Assay: Plasma protein binding, monkey
Type: in vitro ADME
Details: read-out: Plasma protein binding (PPB) (converted)
quantity-name: fraction unbound
Give bare numbers.

Measured fraction unbound, C[C@]12CCCN1CC1=NNC(=O)c3cc(F)cc4[nH]c2c1c34 [Compound A] : 0.111

====

Experiment: Plasma protein binding, dog
Type: in vitro ADME
Settings: read-out: Plasma protein binding (PPB) (converted)
quantity-name: fraction unbound
One number for each entry.

Measured fraction unbound, C[C@]12CCCN1CC1=NNC(=O)c3cc(F)cc4[nH]c2c1c34 : 0.21

====

Assay: Pharmacokinetics in dog
Type: in vivo
Settings: in vivo, dogs, read-out: Steady state volume of distribution
quantity-name: Vd (L/kg)
Give bare numbers, in L/kg.

Measured Vd, C[C@]12CCCN1CC1=NNC(=O)c3cc(F)cc4[nH]c2c1c34 : 1.9

====

Assay: Pharmacokinetics in rat
Type: in vivo
Settings: in vivo, po
quantity-name: bioavailability

Measured bioavailability, C[C@]12CCCN1CC1=NNC(=O)c3cc(F)cc4[nH]c2c1c34 [Compound A] : > 40%

====

Tested on: MDA-MB-231 cells
Assay: Growth inhibition, CellTiter-Glo, 7-day exposure, MDA-MB-231
Type: cell-based
Conditions: Homo sapiens, MDA-MB-231, 168 h, BRCA wild type, read-out: EC50 for growth inhibition, MDA-MB-231
quantity-name: EC50

Measured EC50, C[C@]12CCCN1CC1=NNC(=O)c3cc(F)cc4[nH]c2c1c34 : ~9 µM

====

Test: Solubility study
Format: physicochemical
Settings: simulated gastric fluid (SGF), pH 1.2, simulated gastric fluid, SGF, pH=1.2; read-out: solubility in simulated gastric fluid (SGF)
quantity-name: solubility

Measured solubility, C[C@]12CCCN1CC1=NNC(=O)c3cc(F)cc4[nH]c2c1c34 [Compound A sesqui-hydrate] : ~4500 µg/mL

====

Test system: other CYP isozymes
Test: Inhibition of other CYP isozymes
Assay type: in vitro ADME
Details: human; read-out: IC50s for other CYP isozymes
pIC50: −log10 of the molar value.
quantity-name: pIC50

Measured pIC50, C[C@]12CCCN1CC1=NNC(=O)c3cc(F)cc4[nH]c2c1c34 : < 5.00

====

Assay: Plasma protein binding, mouse
Type: in vitro ADME
Details: read-out: Plasma protein binding (PPB) (converted)
quantity-name: fraction unbound
One number for each entry.

Measured fraction unbound, C[C@]12CCCN1CC1=NNC(=O)c3cc(F)cc4[nH]c2c1c34 [Compound A] : 0.15

====

Molecular target: hERG current (Homo sapiens, UniProt Q12809)
Sequence (Q12809 whole entry): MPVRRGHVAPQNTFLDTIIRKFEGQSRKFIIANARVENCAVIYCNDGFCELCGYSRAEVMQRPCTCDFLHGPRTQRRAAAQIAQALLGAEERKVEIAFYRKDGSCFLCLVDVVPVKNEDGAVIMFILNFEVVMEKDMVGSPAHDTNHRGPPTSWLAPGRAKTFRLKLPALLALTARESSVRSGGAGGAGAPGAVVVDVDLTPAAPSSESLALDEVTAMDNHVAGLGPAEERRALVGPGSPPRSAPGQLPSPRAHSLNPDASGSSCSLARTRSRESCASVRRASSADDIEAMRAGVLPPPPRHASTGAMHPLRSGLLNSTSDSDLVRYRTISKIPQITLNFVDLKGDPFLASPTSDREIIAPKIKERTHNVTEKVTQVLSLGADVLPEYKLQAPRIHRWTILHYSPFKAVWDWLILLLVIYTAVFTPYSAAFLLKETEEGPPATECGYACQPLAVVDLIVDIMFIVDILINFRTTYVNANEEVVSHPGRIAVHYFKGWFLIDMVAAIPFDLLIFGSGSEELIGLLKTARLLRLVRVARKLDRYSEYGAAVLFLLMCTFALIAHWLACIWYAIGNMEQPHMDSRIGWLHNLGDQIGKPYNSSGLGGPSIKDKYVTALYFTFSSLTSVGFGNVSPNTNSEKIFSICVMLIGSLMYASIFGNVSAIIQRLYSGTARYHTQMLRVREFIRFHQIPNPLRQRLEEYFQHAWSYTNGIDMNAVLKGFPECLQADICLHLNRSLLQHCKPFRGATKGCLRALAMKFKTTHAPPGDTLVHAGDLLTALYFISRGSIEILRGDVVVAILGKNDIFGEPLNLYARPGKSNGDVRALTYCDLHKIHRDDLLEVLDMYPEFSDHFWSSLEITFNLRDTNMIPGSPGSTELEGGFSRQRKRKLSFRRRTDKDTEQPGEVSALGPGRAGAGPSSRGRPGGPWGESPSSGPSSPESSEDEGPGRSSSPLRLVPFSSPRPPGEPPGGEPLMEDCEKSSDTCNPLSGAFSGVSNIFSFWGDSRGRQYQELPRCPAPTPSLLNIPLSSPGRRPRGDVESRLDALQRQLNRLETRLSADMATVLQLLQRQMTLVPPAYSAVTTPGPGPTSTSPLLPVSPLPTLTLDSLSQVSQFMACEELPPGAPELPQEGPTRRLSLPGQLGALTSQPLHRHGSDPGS
Assay: hERG current
quantity-name: pIC50
One number for each entry, as −log10 of the molar value.

Measured pIC50, C[C@]12CCCN1CC1=NNC(=O)c3cc(F)cc4[nH]c2c1c34 : 4.59
